Measured values drawn from patent US20230068990A1 for this set.

system: washed human platelet suspension; assay: Inhibition of collagen-induced platelet aggregation (aggregometer); assay type: cell-based; settings: washed human platelets, 2 min preincubation, collagen 4 μg/ml, read-out 6 min after induction
Property Label: IC50
Number first, unit second.

Field IC50 (entry N[C@@H](Cc1c[nH]c2ccccc12)C(=O)N/N=C/c1ccc2nccnc2c1 [(S)G04] ) reads 4 µM
